Below, each of the compounds is paired with its reported Inhibition value.
- Test system: Plasmodium falciparum
- measurement-protocol: GSK_TCMDC: Inhibition of Plasmodium falciparum Dd2 in whole red blood cells, using parasite LDH activity as an index of growth. Test compounds present at 2uM
- Type: functional
result-type: Inhibition (%)

• CN(Cc1cnc2nc(N)nc(N)c2n1)c1ccc(C(=O)N[C@H](CCC(=O)OC(C)(C)C)C(=O)N[C@@H](CCC(=O)OC(C)(C)C)C(=O)OC(C)(C)C)cc1 = 1
• O=C(Nc1cccc(CN2CCN(C(=O)c3cccc(F)c3)CC2)c1)c1ccco1.O=C(O)C(F)(F)F = 55
• O=C(Nc1ccc(-c2cccc(-c3nc4ccccc4[nH]3)c2)cc1)Nc1ccc(F)c(F)c1F = 96
• O=C(N/C=N/c1cc([N+](=O)[O-])c(-c2cccnc2)n1-c1ccc(O)cc1)c1ccccc1 = 62

###

- Tested on: Plasmodium falciparum
- measurement-protocol: GSK_TCMDC: Inhibition of Plasmodium falciparum Dd2 in whole red blood cells, using parasite LDH activity as an index of growth. Test compounds present at 2uM
- Type: functional
Quick rule for you: Inhibition under 80% gets yes (1), anything else gets no (0).

• COc1cc(NC(=O)NC(CCN2CCC3(CCc4ccccc43)CC2)c2ccc(Cl)c(Cl)c2)cc(OC)c1OC (stereo not given) = yes (1)
• Cc1cc(N(CCCN(C)C)Cc2cc(F)cc(F)c2)nc(Nc2ccc(Cl)cc2)n1 = no (0)
• CC[C@H](N/C(=N\c1cccc(Cl)c1Cl)Nc1ccc(C#N)cc1O)c1ccccc1 = yes (1)
• CN1CCC(N2CCC(Oc3cccc(C(=O)NCCCC4CCCC4)c3)CC2)CC1 = yes (1)
• CS(=O)(=O)CCNCc1ccc(-c2cc3c(Nc4ccc(OCc5cccc(F)c5)c(Cl)c4)ncnc3s2)[nH]1 = no (0)
• CCc1ccc(S(=O)(=O)Nc2cccc(CCN3CCC(N4CCCCC4)CC3)c2)cc1 = yes (1)
• COc1cccc(NC(=O)CSc2nc(-c3ccccc3Cl)ns2)c1 = no (0)
• Cc1cccc2nc(-c3ccc(-c4cccc(NC(=O)C(C)CN(C)C)c4)s3)[nH]c12 (stereo not given) = yes (1)
• O=C1Nc2ccccc2/C1=N/NC(=S)N1CCOCC1 = yes (1)
• CCOc1ccc2nc3cc(NC(=O)c4ccco4)ccc3c(N)c2c1 = yes (1)

###

- System: Plasmodium falciparum
- measurement-protocol: GSK_TCMDC: Inhibition of Plasmodium falciparum 3D7 in whole red blood cells, using parasite LDH activity as an index of growth. Test compounds present at 2uM
- Type: functional
result-type: Inhibition (%)

- N=C(Nc1ccccc1)Nc1cccc(Cc2ccc([N+](=O)[O-])cc2)n1: 96
- CC(=O)c1cccc(NC(=O)C2c3ccccc3C(=O)N(CC(C)C)C2c2cccs2)c1 (stereo not drawn): 100
- CCOC(=O)/C(=N\OC(C)(C)C(=O)NCc1ccc(O)c(O)c1)c1csc(NC(c2ccccc2)(c2ccccc2)c2ccccc2)n1: 100
- O=C(O)C(F)(F)F.c1ccc2c(c1)CN(Cc1cc3ccccc3[nH]1)CC1(CCN(Cc3c[nH]c4cnccc34)CC1)O2: 100
- CCC(=O)Nc1ccc(C(O)CN2CCC3(C=Cc4ccccc4O3)CC2)cc1 (stereo not drawn): 93
- NCc1ccc(CNCc2cccc(-c3ccc(-c4nc5ccccc5[nH]4)cc3)c2)cc1.O=C(O)C(F)(F)F: 100
- COc1ccc(NC(=O)CCNc2cc(C)nc(Nc3ccccc3)n2)cc1.O=C(O)C(F)(F)F: 92
- Cc1cc(-c2cccc(CNCc3ccccc3)c2)ccc1S(=O)(=O)NCCN1CCCC1.O=C(O)C(F)(F)F: 98
- CN1CCC(C(=O)N(Cc2ccc(-c3ccc(CNCCc4ccccc4)cn3)cc2)C2Cc3ccccc3C2)CC1.O=C(O)C(F)(F)F: 88
- CCC(C)NC(=O)Nc1ccc(-c2cccc(-c3nc4ccccc4[nH]3)c2)cc1 (stereo not drawn): 94
- COc1ccc2ncc(F)c(CCN3CC(O)C(CNCc4ccccc4)C3)c2n1.Cl (stereo not drawn): 89
- CN1CCc2ccc(NC(=O)Nc3ccc(-c4ccccc4)cc3)cc2C1: 90
- CCc1cn2c3c(cc(C(=O)N[C@@H](Cc4cccc(F)c4)[C@H](O)CNC4CCOCC4)cc13)N(C)S(=O)(=O)CC2.O=CO: 97
- Nc1ncc(-c2ccsc2)c2ccc(-c3ccc4cn[nH]c4c3)cc12: 95
- CS(=O)(=O)N(c1ccccc1)c1cc(C(=O)N[C@@H](Cc2ccccc2)[C@H](O)CNC2CCCCC2)cc(N2CCCC2=O)c1: 100
- CN(CCc1ccccn1)c1cccc2c1nc(-c1cccnc1)n2CCNCc1ccccc1.O=C(O)C(F)(F)F: 90
- O=C(O)C(F)(F)F.Oc1ccc(CCNc2nc(NCc3ccccc3-c3cccc(Cl)c3)nc(N3CCNCC3)n2)cc1: 84
- COc1ccc2c(OC)c(CNCCCCCCNCc3ccc4cc(OC)ccc4c3OC)ccc2c1.CS(=O)(=O)O: 98

###

- System: HepG2
- measurement-protocol: GSK_TCMDC: Percent inhibition of human HepG2 cell line. Test compounds present at 10uM.
- Type: functional
Inhibition vs 20%: at or above is Met, below is Not met.

• CC1(C)[C@H]2CC[C@@H](CNc3nc(NCCc4c[nH]cn4)nc(NCc4cc(F)ccc4F)n3)[C@@H]1C2 = Not met
• O=C(Cn1c(CCc2cccc(F)c2F)nc(=O)c2ccccc21)N(CCCN1CCCCC1)Cc1ccc(-c2ccc(C(F)(F)F)cc2)cc1.O=C(O)C(O)C(O)C(=O)O = Met
• Cl.c1cc2[nH]c(CCCCCc3nc4cc(C5=N[C@@H]6CCCC[C@@H]6N5)ccc4[nH]3)nc2cc1C1=N[C@@H]2CCCC[C@@H]2N1 = Not met
• CC(CCCCOCCc1ccccc1)NCC(O)c1cc(Cl)c(N)c(Cl)c1 (stereo not given) = Not met
• CC(CN1CCN(C)CC1)C(=O)Nc1ccc(-c2ccc(-c3nc4ccccc4[nH]3)cc2)cc1 (stereo not given) = Not met
• CN1CCN(c2ccnc3ccc(NC(=O)Nc4ccc(-c5ccccc5)cc4)cc23)CC1 = Not met
• CCNc1cc(C)nc(Nc2ccc(NC(=O)c3ccco3)cc2)n1 = Met
• CC(CNc1nc(NCC(c2ccccc2)c2ccccc2)c2nc[nH]c2n1)c1ccccc1 (stereo not given) = Not met
• Cc1c(CNCCCNc2nc3cscc3[nH]2)sc(C(F)F)c1Br.Cl = Not met
• Br.Oc1ccc2nc(N3CCNCC3)nc(NCCCc3ccccc3)c2c1 = Not met
• O=C(O)C(F)(F)F.c1cc(CN2CCCCC2)cc(-c2cccc(-c3nc4ccccc4[nH]3)c2)c1 = Met
• Cc1cccc2nc(-c3ccc(-c4cccc(NC(=O)C(C)CN5CCN(C)CC5)c4)cc3)[nH]c12 (stereo not given) = Not met
• CCOC(=O)c1ccc(N(CCCN(CCCN(c2ccc(C(=O)OCC)cc2)S(=O)(=O)c2ccc(C)cc2)CCc2ccc(O)cc2)S(=O)(=O)c2ccc(C)cc2)cc1 = Not met
• COc1ccc2nccc([C@@H](O)CN3CCC(NC(=O)Cc4ccc(Br)c5ccccc45)CC3)c2c1 = Not met
• COc1ccccc1Cn1ccnc1SCC(=O)Nc1cccc(C(F)(F)F)c1 = Not met
• COc1cc2nc(N3CCC(CNC(=O)c4ccc(-c5ccc(O)cc5)cc4)CC3)nc(N)c2cc1OC.O=C(O)C(F)(F)F = Met
• COc1ccc(CNCc2cccc(-c3ccc(-c4nc5cc(C(F)(F)F)ccc5[nH]4)cc3)c2)cc1.O=C(O)C(F)(F)F = Met
• Cc1ccc(-n2cc(CNCCCn3ccnc3)c(-c3cccc(C)c3)n2)cc1 = Not met
• Cl.N#Cc1ccc2c(c1)CCN(CCC1CCC(NC(=O)c3cccc(-c4ccc(F)cc4)c3)CC1)CC2 (stereo not given) = Met
• O=C(NCCCCCN1CCCN(C(=O)Nc2ccc(F)c(C(F)(F)F)c2)CC1)C1CC1c1ccc(Cl)c(Cl)c1 (stereo not given) = Met
• CCCCCCC(C)c1cc(O)c2c(c1)OC(C)(C)C=C2c1ccncc1 (stereo not given) = Not met
• CC(C)Oc1cc2c(cc1NS(=O)(=O)c1ccc(-c3ccc(Cl)cc3)cc1)CCN(C)CC2.Cl = Met
• CCCCCCN1CCC(NCc2ccc(C(F)(F)F)cc2)CC1.O=C(O)C(F)(F)F = Not met
• COc1cc(CNCCCCCCNCc2cc(OC)c3ccccc3c2OC)c(OC)c2ccccc12.CS(=O)(=O)O = Met
• Cc1cc(CN2CCC(Nc3ncc(-c4ccsc4)c4nc(C(F)(F)F)ccc34)CC2)no1.Cl = Not met
• O=C(Nc1ccc(-c2cccc(-c3nc4cc(F)ccc4[nH]3)c2)cc1)Nc1ccsc1 = Met
• C(=N\Nc1nccc2sc(-c3cccnc3)cc12)/c1cccnc1 = Not met
• CCn1ncc2c(N3CCCC3=O)cc(C(=O)N[C@@H](Cc3ccccc3)[C@H](O)CNC(C)(C)c3cccc(OC)c3)cc21 = Not met
• COc1ccc(CNC(=O)NC2CCN(c3ccnc(Nc4ccc(F)cc4)n3)C2)cc1 (stereo not given) = Not met
• O=C(Nc1cc(Cl)ccc1O)c1ccc(Oc2ccc(C(=O)Nc3cc(Cl)ccc3O)cc2)cc1 = Met
• Br.CC1(C)NC(N)=NC(=N)N1OCCCOc1ccc([N+](=O)[O-])cc1 = Met
• CC(C)[C@H](NC(=O)NC1CCC(CCN2C3CCC2CC(OC(=O)C(CO)c2ccccc2)C3)CC1)C(O)(c1ccccc1)c1ccccc1 (stereo not given in full) = Not met
• CN(C)CCCNc1ccnc2cc(Cl)ccc12 = Not met
• CS(=O)(=O)c1cccc(-c2cnc(N)c3cc(-c4ccc5c(c4)OCO5)ccc23)c1.O=CO = Met
• CNC(=O)c1ccccc1Nc1nc(Nc2cccc(CS(C)(=O)=O)c2)ncc1C.O=CO = Met
